Experimental system: Androgen receptor (Homo sapiens)
Assay details: qHTS assay to identify small molecule antagonists of the androgen receptor (AR) signaling pathway (AID 743035)
Condition notes: HEK293 AR-UAS-bla, R1881-stimulated, beta-lactamase FRET, 16 h; series mostly up to 58.5 µM
Text: National Center for Advancing Translational Sciences [NCATS] NIH Chemical Genomics Center [NCGC] U.S. Environmental Protection Agency [EPA] National Institutes of Environmental Health Sciences [NIEHS] National Toxicology Program [NTP] U.S. Food and Drug Administration [FDA] Androgen receptor (AR), a nuclear hormone receptor, plays a critical role in AR-dependent prostate cancer and other androgen related diseases. […]
Records with an inconclusive call do not appear. Active and inactive are the calls of the source. Calls come from the whole dose curve; as a rule, active = well fitted inhibition curve with a large enough effect in the signal ratio in the repeat runs (not every such curve was filed as active); inconclusive = weak or mixed curves, or effect the other way; inactive = no such curve, though single readings can be large or run the other way; the % refers to the signal ratio.
Your reply should match one of these outcome classes. T for active, F for inactive

C=C(C)[C@@H]1CCC2=CCC[C@@H](C)[C@]2(C)C1
F
C=C1C[C@@]23CC[C@H]4[C@@](C)(CCC[C@@]4(C)C(=O)O[C@@H]4O[C@H](CO)[C@@H](O)[C@H](O)[C@H]4O)[C@@H]2CC[C@]1(O[C@@H]1O[C@H](CO)[C@@H](O)[C@H](O[C@@H]2O[C@H](CO)[C@@H](O)[C@H](O)[C@H]2O)[C@H]1O[C@@H]1O[C@H](CO)[C@@H](O)[C@H](O)[C@H]1O)C3
F
O=[N+]([O-])c1cc(C2CCCCC2)c(O)c([N+](=O)[O-])c1
T
Cc1cc(C)cc(N)c1
F
CC[C@]1(O)C[C@H]2CN(CCc3c([nH]c4ccccc34)[C@@](C(=O)OC)(c3cc4c(cc3OC)N(C=O)[C@H]3[C@@](O)(C(=O)OC)[C@H](OC(C)=O)[C@]5(CC)C=CCN6CC[C@]43[C@@H]65)C2)C1
T
CC/C=C1/OC(=O)c2ccccc21
F

Consider the record given below.
Short answer needed: outcome of this test for O=C1NC(=O)c2cc([N+](=O)[O-])ccc21 ?
F
